System: RPMI-8226 leukemia
Assay: NCI-60 one-dose screen, 48 h (100 = growth as untreated, 0 = no growth, -100 = all killed)
Conditions: 10 µM unless noted
Method: Growth inhibition of the RPMI-8226 human tumor cell line is measured as a screen for anti-cancer activity. Cells are grown in 96 well plates and exposed to the test compound for 48 hours. Compounds are tested at a single concentration, which is 10^-5 M for most compounds. The reported endpoint is percent growth (GI% or GIPRCNT), where numbers from 0 - 100% represent growth inhibition, and numbers from -100% - 0 represent cell death. For example, a value of 40 represents 60% growth inhibition. […]
Compounds without any hit were thinned out: in the full panel of roughly 83,000, 20% have a hit.
MEASURED_ATTRIBUTE: growth (%)
One number for each entry, in %.

Please review the following examples before continuing.
Provide growth, recorded with RPMI-8226 leukemia, of COC(=O)C1(C)COP(=O)(NC23CC4CC(CC(C4)C2)C3)OC1 (centres undefined)
95.6

Provide growth, recorded with RPMI-8226 leukemia, of C#CC[C@@H]1C[C@]2(C)[C@H]3CC=C4[C@H]5CC(C)(C)CC[C@]5(C(=O)NCCCCN)CC[C@@]4(C)[C@]3(C)CC[C@H]2C(C)(C)[C@H]1OC(C)=O
-10.2

Provide growth, recorded with RPMI-8226 leukemia, of CCN(CC)CCNc1c(C)cc(CO)c(Cl)c1C
105

Provide growth, recorded with RPMI-8226 leukemia, of COC(=O)C(C)NC1=C(Cl)C(=O)C(NC(C)C(=O)OC)=C(Cl)C1=O (centres undefined)
96.1

Provide growth, recorded with RPMI-8226 leukemia, of C/C(CC(=O)NNc1ccc([N+](=O)[O-])cc1)=N\Nc1ccc([N+](=O)[O-])cc1
72.1

# map each compound to its growth
1. CN(CCO)c1ccc(N2Cc3ccccc3OC3=C2C(=O)c2c(O)ccc(O)c2C3=O)cn1
2. C=CCn1c(SCC(=O)Nc2ccc(/C(C)=N\O)cc2)nnc1-c1cc(-c2ccc(Cl)cc2)nc2ccccc12
3. Cc1cc(C)cc(NC(=O)Cn2nncc2CN2C(=O)CSC2=O)c1
4. COc1ccc(/C(=C\c2cc(OC)c(OC)c(OC)c2)C(=O)N2CCNCC2)cc1

1: -16.2; 2: 9; 3: 110; 4: 95.1

###

tested on: HOP-62 NSCLC; experiment: NCI-60 one-dose screen, 48 h (100 = growth as untreated, 0 = no growth, -100 = all killed); settings: 10 µM unless noted
The panel holds about 83,000 compounds, 20% with a hit somewhere; the sample as a whole holds those more often.
Lab note: compare growth against 90%. Equal or greater, write T. Smaller, write F.

Here's what some known entries look like.
Test whether the molecule COc1cc(C(=O)/C=C/c2cn(-c3ccccc3)nc2-c2cccc(Nc3ccnc4cc(Cl)ccc34)c2)cc(OC)c1OC records growth of 90% or higher.
F

Test whether the molecule CC(C)N1CCN(c2ccncc2S(=O)(=O)N2CCN(C)CC2)CC1 records growth of 90% or higher.
T

Test whether the molecule CCN(C(=O)Nc1cccc2ccccc12)c1ccccc1 records growth of 90% or higher.
T

Test whether the molecule CCOc1c(C#N)c2c(N)ncnc2n1C1OC(CO)C(O)C1O (stereo not given) records growth of 90% or higher.
F

Test whether the molecule COc1ccc(/C=C2\Cc3c(Br)cccc3C2=O)c(OC)c1 records growth of 90% or higher.
F

Test whether the molecule Cc1ccc(NC(=O)c2[nH]c(SCCN(C)C)nc2-c2ccc(F)cc2)cc1Nc1ccc2ncn(C)c(=O)c2c1 records growth of 90% or higher.
F

Others:
Test whether the molecule COc1cc(Nc2ccnc3ccc(Br)cc23)cc(OC)c1OC records growth of 90% or higher.
F

Test whether the molecule COc1ccc(C2CC(c3ccc(Nc4ccnc5cc(Cl)ccc45)cc3)=NN2c2ccccc2)cc1 (stereo not given) records growth of 90% or higher.
T

Test whether the molecule COc1cccc(NC(=O)[C@H](C(C)C)n2c(=O)[nH]c3ccccc3c2=O)c1 records growth of 90% or higher.
T

Test whether the molecule Fc1ccc(-c2ccnc3nc(-c4ccncc4)nn23)cc1 records growth of 90% or higher.
T
